Assay: Selectivity ratio of IC50 for human THP1 cells to IC50 for Staphylococcus aureus
Format: ADME, cell-based, THP-1
measuredProperty: selectivity ratio

Kindly note the recorded selectivity ratio for CCCCCCCCCCCC(=O)O[C@H]1[C@@H](O[C@@]2(CO)O[C@@H](CO)[C@H](O)[C@H]2O)O[C@H](CO)[C@@H](O)[C@@H]1OC(=O)C=C(C)C [PHYSALOSIDE A] , which is > 10

Values were extracted from ChEMBL document CHEMBL1142593.
